# run-description: Cytotoxicity against human MRC5 cells assessed as cell growth inhibition at 10 uM relative to control
# Format: toxicity, cell-based
# cond: read-out: GI
measured-property: inhibition at 10 µM (%)

CCOC(=O)C1=C(C)NC(C)=C(C(=O)OCC)C1c1cccc2c1OCO2 | 18.6
C[C@H]1O[C@H](O[C@H]2[C@H](O)[C@@H](O)[C@@H](O[C@H]3[C@H](O)[C@@H](O)C(O)O[C@@H]3CO)O[C@@H]2CO)[C@H](O)[C@@H](O)[C@@H]1N[C@H]1C=C(CO)[C@@H](O)[C@H](O)[C@H]1O (some centres undefined) | 32.3
CCC1=C(C)CN(C(=O)NCCc2ccc(S(=O)(=O)NC(=O)N[C@H]3CC[C@H](C)CC3)cc2)C1=O [GLIMEPIRIDE] | 24.2
COc1cccc2c1C(=O)c1c(O)c3c(c(O)c1C2=O)C[C@@](O)(C(=O)CO)C[C@@H]3O[C@H]1C[C@H](N)[C@H](O)[C@H](C)O1 | 38.4
